Data provenance is patent US9120812B2.

- SYSTEM_TESTED: mTOR (human recombinant aa mTOR 1360-2549) (Homo sapiens (Human))
- ASSAY_PROTOCOL: mTOR enzymatic test by TR-FRET (phosphorylation of GFP-4EBP1)
READOUT: pIC50
To interpret pIC50, take it as minus log10 of a concentration measured in moles per litre.

Entry under review: `CCN1CC(C)(C)Oc2nc(N3C4CCC3COC4)nc(-c3ccc(NC(=O)Nc4cc(C)nc(C)n4)cc3)c2C1=O` . Reported pIC50?
7.14

Entry under review: `CCN1CC(C)(C)Oc2nc(N3C4CCC3COC4)nc(-c3ccc(NC(=O)NC)c(F)c3)c2C1=O` . Reported pIC50?
7.74

Entry under review: `CCN1CC(C)(C)Oc2nc(N3CC4CCC(C3)O4)nc(-c3ccc(NC(=O)Nc4ccncc4)cc3F)c2C1=O` . Reported pIC50?
7.68

Entry under review: `CCN1CC(C)(C)Oc2nc(N3CCOC[C@@H]3C)nc(-c3ccc(NC(=O)Nc4cccc(OC(F)F)c4)cc3)c2C1=O` . Reported pIC50?
7.21

====

- SYSTEM_TESTED: mTOR (human recombinant aa mTOR 1360-2549) (Homo sapiens (Human))
- ASSAY_PROTOCOL: mTOR enzymatic test by TR-FRET (phosphorylation of GFP-4EBP1)
READOUT: pIC50
To interpret pIC50, take it as minus log10 of a concentration measured in moles per litre.

Would you please look over these solved cases?
| CHEMICAL_SMILES | READOUT | OBSERVED_RESULT |
| --- | --- | --- |
| CCN1CC(C)(C)Oc2nc(N3CCOC[C@@H]3C)nc(-c3ccc(NC(=O)Nc4ccc(N5C[C@@H]6C[C@H]5CO6)nc4)c(F)c3)c2C1=O | pIC50 | 7.17 |
| CCN1CC(C)(C)Oc2nc(N3CC4CCC(C3)O4)nc(-c3ccc(NC(=O)Nc4ccc(N5CCN(C)CC5)cc4)cc3)c2C1=O | pIC50 | 7.20 |
| CCN1CC(C)(C)Oc2nc(N3CCOC[C@@H]3C)nc(-c3ccc(NC(=O)OCC(C)(C)O)cc3)c2C1=O | pIC50 | 5.61 |

Entry under review: `CCN1CC(C)(C)Oc2nc(N3CC4CCC(C3)O4)nc(-c3ccc(NC(=O)Nc4ccc(C(F)(F)F)cc4F)cc3)c2C1=O` . Reported pIC50?
6.74

====

- SYSTEM_TESTED: PI3Kα (p110α/p85α) (Homo sapiens (Human), UniProt P42336)
- Sequence (P42336 whole entry): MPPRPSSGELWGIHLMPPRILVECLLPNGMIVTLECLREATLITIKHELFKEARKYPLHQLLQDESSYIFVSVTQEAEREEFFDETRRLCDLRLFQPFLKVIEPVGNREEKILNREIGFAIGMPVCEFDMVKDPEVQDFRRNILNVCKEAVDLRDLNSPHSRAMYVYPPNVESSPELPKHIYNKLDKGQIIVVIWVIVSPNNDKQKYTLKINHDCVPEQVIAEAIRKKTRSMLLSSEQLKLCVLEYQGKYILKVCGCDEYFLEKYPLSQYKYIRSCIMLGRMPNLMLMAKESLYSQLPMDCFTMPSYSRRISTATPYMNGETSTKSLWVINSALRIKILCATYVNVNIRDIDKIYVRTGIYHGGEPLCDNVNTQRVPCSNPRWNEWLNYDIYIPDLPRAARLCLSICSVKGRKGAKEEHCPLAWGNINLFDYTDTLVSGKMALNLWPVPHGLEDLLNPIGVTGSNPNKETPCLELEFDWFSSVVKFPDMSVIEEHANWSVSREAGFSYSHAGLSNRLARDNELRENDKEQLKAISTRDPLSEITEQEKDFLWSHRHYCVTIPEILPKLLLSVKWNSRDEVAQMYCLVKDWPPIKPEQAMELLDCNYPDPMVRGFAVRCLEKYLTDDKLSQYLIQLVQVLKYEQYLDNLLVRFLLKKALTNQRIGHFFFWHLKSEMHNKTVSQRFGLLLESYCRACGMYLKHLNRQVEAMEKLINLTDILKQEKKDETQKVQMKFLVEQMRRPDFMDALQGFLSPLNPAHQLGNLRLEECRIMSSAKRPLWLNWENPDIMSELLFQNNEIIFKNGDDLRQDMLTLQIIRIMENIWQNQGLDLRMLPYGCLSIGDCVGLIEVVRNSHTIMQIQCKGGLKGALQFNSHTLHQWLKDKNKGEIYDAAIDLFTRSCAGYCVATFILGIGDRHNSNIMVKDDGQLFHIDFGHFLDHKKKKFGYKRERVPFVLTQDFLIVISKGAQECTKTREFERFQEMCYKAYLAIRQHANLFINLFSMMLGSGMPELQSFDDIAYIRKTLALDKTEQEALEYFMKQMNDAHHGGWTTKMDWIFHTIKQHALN
- Sequence (P27986 whole entry partner): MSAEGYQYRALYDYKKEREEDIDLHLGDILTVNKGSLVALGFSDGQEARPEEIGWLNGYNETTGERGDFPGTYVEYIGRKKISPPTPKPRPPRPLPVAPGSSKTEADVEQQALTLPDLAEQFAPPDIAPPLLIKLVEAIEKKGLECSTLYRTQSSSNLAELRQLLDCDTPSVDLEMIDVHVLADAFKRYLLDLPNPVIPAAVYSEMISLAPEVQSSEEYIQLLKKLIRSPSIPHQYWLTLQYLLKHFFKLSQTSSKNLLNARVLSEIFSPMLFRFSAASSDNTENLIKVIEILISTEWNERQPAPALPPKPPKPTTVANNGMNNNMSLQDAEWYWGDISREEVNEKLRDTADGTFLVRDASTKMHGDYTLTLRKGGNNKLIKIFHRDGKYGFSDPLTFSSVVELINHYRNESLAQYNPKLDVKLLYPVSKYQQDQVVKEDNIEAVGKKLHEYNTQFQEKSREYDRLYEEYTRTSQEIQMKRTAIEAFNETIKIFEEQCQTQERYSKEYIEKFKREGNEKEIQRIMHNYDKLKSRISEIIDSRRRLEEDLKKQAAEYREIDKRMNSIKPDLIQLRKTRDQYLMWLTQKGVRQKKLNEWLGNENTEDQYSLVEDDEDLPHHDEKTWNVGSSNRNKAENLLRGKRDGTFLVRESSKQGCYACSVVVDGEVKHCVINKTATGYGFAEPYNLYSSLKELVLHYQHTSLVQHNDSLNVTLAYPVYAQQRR
- ASSAY_PROTOCOL: PI3Kα enzymatic test by measuring the consumption of ATP
- Assay type: biochemical
READOUT: PI3Ka IC50 (µM)
// return numeric value only (unit: µM, not printed)

Would you please look over these solved cases?
| CHEMICAL_SMILES | PI3Ka IC50 [µM] |
| --- | --- |
| CCN1CC(C)(C)Oc2nc(N3CC4CCC(C3)O4)nc(-c3ccc(NC(=O)Nc4ccncc4F)c(F)c3)c2C1=O | 2.36 |
| CCN1CC(C)(C)Oc2nc(N3C4CCC3COC4)nc(-c3ccc(NC(=O)Nc4ccnc(C)c4)c(F)c3)c2C1=O | 4.81 |

Now for another entry.
Entry under review: `CCN1CC(C)(C)Oc2nc(N3CCOC[C@@H]3C)nc(-c3ccc(NC(=O)Nc4ccc(N5CCN(C)CC5)nc4)c(F)c3)c2C1=O` . Reported PI3Ka IC50?
0.308

====

# IC50 per record follows
- Tested on: U87MG tumour cells
- ASSAY_PROTOCOL: Test of in vitro proliferation of U87MG tumour cells
- Type: cell-based
- MEASUREMENT_PARAMETERS: Homo sapiens, U-87 MG, 72 h, U87MG cells, 72 hours; read-out: U87 Cell Proliferation IC50
- Protocol: Model 4: Test of in vitro Proliferation of U87MG Tumour Cells. The cell growth is determined with the reagent CellTiter 96 AQueous One Solution Cell Proliferation Assay from Promega (Cat. No. G3581).

Would you please look over these solved cases?
| CHEMICAL_SMILES | IC50 |
| --- | --- |
| CN1CC(C)(C)Oc2nc(N3CC4CCC(C3)O4)nc(-c3ccc(NC(=O)Nc4ccncc4)c(F)c3)c2C1=O | 41 nM |
| CCN1CC(C)(C)Oc2nc(N3CCOC[C@@H]3C)nc(-c3ccc(NC(=O)Nc4cc(OC)ccn4)cc3F)c2C1=O | 2300 nM |

Now for another entry.
Entry under review: `C[C@H]1COCCN1c1nc2c(c(-c3ccc(NC(=O)Nc4ccon4)c(F)c3)n1)C(=O)N(C1CCOCC1)CC(C)(C)O2` . Reported IC50?
395 nM

====

# pIC50 per record follows
- SYSTEM_TESTED: mTOR (human recombinant aa mTOR 1360-2549) (Homo sapiens (Human), UniProt P42345)
- Sequence (P42345 1360-2549): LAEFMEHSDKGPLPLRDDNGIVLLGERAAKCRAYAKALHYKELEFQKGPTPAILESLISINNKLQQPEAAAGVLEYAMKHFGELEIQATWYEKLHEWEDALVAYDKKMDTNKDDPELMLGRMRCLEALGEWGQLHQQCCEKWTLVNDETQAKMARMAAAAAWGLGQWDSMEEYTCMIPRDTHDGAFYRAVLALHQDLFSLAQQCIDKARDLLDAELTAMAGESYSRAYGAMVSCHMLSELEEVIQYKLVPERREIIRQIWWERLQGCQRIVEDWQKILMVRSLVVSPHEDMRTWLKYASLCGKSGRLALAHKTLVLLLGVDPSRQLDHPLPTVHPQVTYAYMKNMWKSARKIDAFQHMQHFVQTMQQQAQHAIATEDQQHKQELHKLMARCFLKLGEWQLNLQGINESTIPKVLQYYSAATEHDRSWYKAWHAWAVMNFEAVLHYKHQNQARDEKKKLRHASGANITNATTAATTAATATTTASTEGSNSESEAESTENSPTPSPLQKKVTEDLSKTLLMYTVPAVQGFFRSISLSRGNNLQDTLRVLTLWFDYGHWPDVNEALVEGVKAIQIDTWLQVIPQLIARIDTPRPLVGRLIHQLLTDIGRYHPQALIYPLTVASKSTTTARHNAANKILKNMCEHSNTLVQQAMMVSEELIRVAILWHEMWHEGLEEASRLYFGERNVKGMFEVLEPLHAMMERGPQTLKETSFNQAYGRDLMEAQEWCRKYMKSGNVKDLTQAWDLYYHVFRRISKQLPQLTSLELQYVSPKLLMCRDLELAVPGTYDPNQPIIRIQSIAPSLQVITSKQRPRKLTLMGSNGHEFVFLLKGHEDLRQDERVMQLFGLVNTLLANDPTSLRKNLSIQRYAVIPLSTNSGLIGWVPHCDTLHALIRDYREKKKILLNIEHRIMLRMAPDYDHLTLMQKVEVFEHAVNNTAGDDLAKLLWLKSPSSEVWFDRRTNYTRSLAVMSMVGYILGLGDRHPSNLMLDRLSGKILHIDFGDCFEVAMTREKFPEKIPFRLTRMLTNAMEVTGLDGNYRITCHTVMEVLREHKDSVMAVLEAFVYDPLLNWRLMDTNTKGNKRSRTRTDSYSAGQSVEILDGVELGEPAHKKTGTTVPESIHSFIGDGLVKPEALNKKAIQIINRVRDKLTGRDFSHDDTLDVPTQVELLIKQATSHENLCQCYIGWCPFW
- ASSAY_PROTOCOL: mTOR enzymatic test by TR-FRET (phosphorylation of GFP-4EBP1)
To interpret pIC50, take it as minus log10 of a concentration measured in moles per litre.

| MOLECULE | OBSERVED_RESULT |
| --- | --- |
| CCNC(=O)Nc1ccc(-c2nc(N3CCOC[C@@H]3CC)nc3c2C(=O)N(CC)CC(C)(C)O3)cc1F [Example 151] | 6.94 |
| COc1ccnc(NC(=O)Nc2ccc(-c3nc(N4C5CCC4COC5)nc4c3C(=O)N(C)CC(C)(C)O4)cc2)c1 [Example 70] | 7.57 |
| CCN1CC(C)(C)Oc2nc(N3CC4CCC(C3)O4)nc(-c3ccc(NC(=O)Nc4ccc(F)c(OC)c4)c(F)c3)c2C1=O [Example 138] | 6.52 |

Entry under review: CCN1CC(C)(C)Oc2nc(N3CCOC[C@@H]3C)nc(-c3ccc(NC(=O)O[C@H]4CCC[C@H]4O)cc3)c2C1=O [Example 53] . Reported pIC50?
6.65

====

# PI3Ka IC50 per record follows
- SYSTEM_TESTED: PI3Kα (p110α/p85α) (Homo sapiens (Human), UniProt P42336)
- ASSAY_PROTOCOL: PI3Kα enzymatic test by measuring the consumption of ATP
- Assay type: biochemical

| CHEMICAL_SMILES | PI3Ka IC50 |
| --- | --- |
| CCN1CC(C)(C)Oc2nc(N3C4CCC3COC4)nc(-c3ccc(NC(=O)Nc4ccc(N5CCOCC5(C)C)nc4)c(F)c3)c2C1=O | >10 µM |

Entry under review: `CCN1CC(C)(C)Oc2nc(N3CC4CCC(C3)O4)nc(-c3ccc(NC(=O)Nc4ccnc(C)c4)c(F)c3)c2C1=O` . Reported PI3Ka IC50?
3.23 µM

Entry under review: `C[C@H]1COCCN1c1ccc(NC(=O)Nc2ccc(-c3nc(N4C5CCC4COC5)nc4c3C(=O)N(C)CC(C)(C)O4)cc2F)cn1` . Reported PI3Ka IC50?
>10 µM

====

- SYSTEM_TESTED: PI3Kα (p110α/p85α) (Homo sapiens (Human), UniProt P42336)
- ASSAY_PROTOCOL: PI3Kα enzymatic test by measuring the consumption of ATP
- Format: biochemical
READOUT: PI3Ka IC50

Would you please look over these solved cases?
| CHEMICAL_SMILES | SYSTEM_TESTED | PI3Ka IC50 |
| --- | --- | --- |
| CCN1CC(C)(C)Oc2nc(N3CC4CCC(C3)O4)nc(-c3ccc(NC(=O)NC)c(F)c3)c2C1=O | PI3Kα (p110α/p85α) (Homo sapiens (Human), UniProt P42336) | 8.841 µM |
| CCNC(=O)Nc1ccc(-c2nc(N3CC4CCC(C3)O4)nc3c2C(=O)N(CCOC)CC(C)(C)O3)cc1F | PI3Kα (p110α/p85α) (Homo sapiens (Human), UniProt P42336) | >10 µM |
| Cc1ccc(NC(=O)Nc2ccc(-c3nc(N4C5CCC4COC5)nc4c3C(=O)N(C)CC(C)(C)O4)cc2F)cn1 | PI3Kα (p110α/p85α) (Homo sapiens (Human), UniProt P42336) | >10 µM |

Now for another entry.
Entry under review: `COCCN1CC(C)(C)Oc2nc(N3CCOC[C@@H]3C)nc(-c3ccc(NC(=O)NCC(C)(C)O)c(F)c3)c2C1=O` . Reported PI3Ka IC50?
>10 µM

====

- SYSTEM_TESTED: PI3Kα (p110α/p85α) (Homo sapiens (Human), UniProt P42336)
- ASSAY_PROTOCOL: PI3Kα enzymatic test by measuring the consumption of ATP
- Assay type: biochemical
- Procedure: Model 2: PI3Kα Enzymatic Test by Measuring the Consumption of ATP. The test uses a lucifeurerin/luciferase system to measure the concentration of ATP and its consumption during the enzymatic reaction. The test is performed in 96-well format (Corning/Costar 96 black flat-bottomed half-wells plate, ref. 3694) in a total volume of 30 μl. […] The IC50 values are determined by the preparation of successive threefold dilutions on at least a scale of 10 000.
READOUT: PI3Ka IC50

Would you please look over these solved cases?
| COMPOUND | SYSTEM_TESTED | PI3Ka IC50 |
| --- | --- | --- |
| C[C@H]1COCCN1c1ccc(NC(=O)Nc2ccc(-c3nc(N4CC5CCC(C4)O5)nc4c3C(=O)N(C)CC(C)(C)O4)cc2F)cn1 [Example 73] | PI3Kα (p110α/p85α) (Homo sapiens (Human), UniProt P42336) | 5.91 µM |
| CCNC(=O)Nc1ccc(-c2nc(N3CC4CCC(C3)O4)nc3c2C(=O)N(CCCO)CC(C)(C)O3)cc1 [Example 9] | PI3Kα (p110α/p85α) (Homo sapiens (Human), UniProt P42336) | >10 µM |
| CCN1CC(C)(C)Oc2nc(N3CC4CCC(C3)O4)nc(-c3ccc(NC(=O)Nc4ccnn4C)cc3)c2C1=O [Example 115] | PI3Kα (p110α/p85α) (Homo sapiens (Human), UniProt P42336) | >10 µM |

Now for another entry.
So what PI3Ka IC50 did COCCN1CC(C)(C)Oc2nc(N3CC4CCC(C3)O4)nc(-c3ccc(NC(=O)Nc4ccon4)c(F)c3)c2C1=O [Example 179] get with PI3Kα (p110α/p85α) (Homo sapiens (Human), UniProt P42336)?
>10 µM
